Target: Rac GTPase-activating protein 1 (Homo sapiens)
Test: blockers of MgcRacGAP-driven Rac1 GTP hydrolysis – biochemical, ADP Hunter fluorescence, primary and confirmatory, confirmation (AID 624330);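 note: fluorescence reports GDP produced by GAP-driven GTP hydrolysis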
Conditions: MgcRacGAP-stimulated Rac1 GTP hydrolysis, at 30 µM, active compounds read high, GST-tagged Rac1 F28L mutant substrate
Hit rate of the full screen: of about 340,000 compounds, about 2,100 (0.62%) were called active. A selection follows. Measured potencies and affinities stand elsewhere.
readout.label: inhibition (%)
Dear colleague, please return just the value in %, with no unit written.

compound	inhibition / %
CCOc1ccc(OCC(O)CNC2CCN(Cc3ccccc3)CC2)cc1 (stereo not given)	7.46
O=C(NCc1cccnc1)c1ccccn1	3.14
COc1ccc(-c2nn(-c3ccccc3)cc2/C=N/Nc2ccc(Cl)c(C(=O)O)c2)cc1OC	13.5
COc1ccccc1NC(=O)c1ccc[n+]([O-])c1	4.42
CCCCc1ccc(NC(=O)c2ccc(N(C)S(C)(=O)=O)cc2)cc1	-2.51
Cc1ccc2c(CC(=O)O)coc2c1	-1.54

inhibition on Rac GTPase-activating protein 1 (Homo sapiens) for OC(CNCCc1ccccc1)COc1ccc(OCC(O)CNCCc2ccccc2)cc1 (stereo not given) is 8.04

Summary line: `Cc1cccc(C(C)C)c1NC(=O)COC(=O)c1cc2ccccc2oc1=O` , Rac GTPase-activating protein 1 (Homo sapiens), reported inhibition = 4.05

Bench note, Rac GTPase-activating protein 1 (Homo sapiens): `COc1ccc(N(CC(=O)Nc2ccccc2F)S(=O)(=O)c2ccc(OC)c(OC)c2)cc1` , inhibition reads -10.3

The compound `CC(C)(C)OC(=O)NCCCC[C@H](NC(=O)c1nc[nH]c1C(=O)NC(c1ccccc1)c1ccccc1)C(=O)OC(C)(C)C` , when measured on Rac GTPase-activating protein 1 (Homo sapiens), yielded inhibition of 2.03

====

inhibition overview
Biological target: Rac GTPase-activating protein 1 (Homo sapiens)
Assay: blockers of MgcRacGAP-driven Rac1 GTP hydrolysis – biochemical, ADP Hunter fluorescence, primary and confirmatory, confirmation (AID 624330);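 note: fluorescence reports GDP produced by GAP-driven GTP hydrolysis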
Settings: MgcRacGAP-stimulated Rac1 GTP hydrolysis, at 30 µM, active compounds read high, GST-tagged Rac1 F28L mutant substrate
Among all 340,000 compounds or so, about 2,100 (0.62%) were called active. These entries were drawn from the full list. Measured potencies and affinities stand elsewhere.
Write down the numeric answer in % and omit the unit.

compound	unit.string	inhibition
COc1ccc(Nc2cccc3ccccc23)cc1	%	31.6
COc1ccc(NC(C)=O)c(C)c1	%	-3.51
COc1ccc(Nc2cccccc2=O)cc1	%	7.45

inhibition on Rac GTPase-activating protein 1 (Homo sapiens) for `O=C(O)CCC(=O)Nc1cccc(C(=O)c2ccccc2)c1` is 8.75

Rac GTPase-activating protein 1 (Homo sapiens) inhibition of COC(=O)c1ccc(CNC(=O)C2CCC(=O)N(CCc3ccccc3)C2)cc1 (stereo unspecified) is 6.06

// returns inhibition for `O=C(CN1CCN(c2ccc(F)cc2)CC1)Nc1ccccc1C(=O)NCCc1ccccc1` with Rac GTPase-activating protein 1 (Homo sapiens); value = 9.18

====

Molecular target: Rac GTPase-activating protein 1 (Homo sapiens)
Assay: blockers of MgcRacGAP-driven Rac1 GTP hydrolysis – biochemical, ADP Hunter fluorescence, primary and confirmatory, confirmation (AID 624330);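 note: fluorescence reports GDP produced by GAP-driven GTP hydrolysis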
Conditions: MgcRacGAP-stimulated Rac1 GTP hydrolysis, at 30 µM, active compounds read high, GST-tagged Rac1 F28L mutant substrate
About 2,100 (0.62%) of roughly 340,000 compounds were called active. The list is a sample of the results. Results with a measured potency or affinity are listed apart.
The molecules listed here are annotated with their inhibition.
Dear colleague, please return just the value in %, with no unit written.

Before answering, review these 3 worked examples.
molecule	inhibition / %
Cc1ccc(Oc2ccccc2NC(=O)CSCC(=O)Nc2cc(C)on2)cc1	3.22
CCOC(=O)C(Cc1ccccc1)NC(C)=O (centres undefined)	-0.49
OC1CCN(C(=S)Nc2ccc(Oc3ccccc3)cc2)CC1	-10.8

Could you now look at the following molecule, please?
inhibition recorded for this molecule, `Cc1cc(C)c2nc(NNC(=O)c3cc(=O)c4ccccc4o3)sc2c1` , is 10.6

====

Biological target: Rac GTPase-activating protein 1 (Homo sapiens)
Experiment: blockers of MgcRacGAP-driven Rac1 GTP hydrolysis – biochemical, ADP Hunter fluorescence, primary and confirmatory, confirmation (AID 624330);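 note: fluorescence reports GDP produced by GAP-driven GTP hydrolysis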
Details: MgcRacGAP-stimulated Rac1 GTP hydrolysis, at 30 µM, active compounds read high, GST-tagged Rac1 F28L mutant substrate
In all, about 340,000 compounds went through this assay and about 2,100 (0.62%) were called active. The list is a sample of the results. Results with a measured potency or affinity are listed apart.
Entries and their inhibition
Give the value, in units of %, as a plain number.

// worked examples, inhibition included
compound	inhibition [%]
COc1cc(CC(=O)OCC(=O)Nc2ccc([N+](=O)[O-])cc2)cc(OC)c1OC	13.3
COc1ccc(CN2C3CCC2CC(NC(=O)c2cc(OC)c(OC)c(OC)c2)C3)cc1 (centres undefined)	9.16
O=C(O)c1cc(N/N=C/c2ccncc2)ccc1Cl	-1.57

inhibition measured on `O=C(COC(=O)C1CCC1)Nc1cccc(Cl)c1` = 2.49

Entry under test: `CCN1C(=O)[C@H]2[C@@H](c3ccc(C)cc3)N3C(=O)N(c4ccc(OC)cc4)C(=O)[C@@]3(Cc3ccc(Cl)cc3)[C@H]2C1=O` . Its inhibition was -2.48

Lab book: inhibition of `CCOC(=O)[C@H](O)[C@@H](O)c1cccc([C@H](O)[C@@H](O)C(=O)OCC)c1` noted as 11.8

// recorded inhibition for `C=CCSc1nc2sc(C)c(C)c2c(=O)n1N` : 2.09

Measured inhibition, `COc1ccc(/C=N/NC(=O)c2cccnc2)c2ccccc12` : 10.9

Value of inhibition reported for the compound COc1ccc(NC(=O)c2ccccc2NC(=O)C2CCCO2)cc1 (centres undefined) is 10.5

Reported inhibition ( `Cc1ccc(/C=N/Nc2cccc(C(=O)O)c2)s1` ) = 27.8

get_value(item= `CCN(CC)S(=O)(=O)c1ccc(NC(=O)COC(=O)CCc2cc(OC)c(OC)c(OC)c2)cc1` , readout=inhibition) returns 1.83

Value of inhibition reported for the compound Cc1ccc(C(C[N+](=O)[O-])c2c(N)n(C)c(=O)n(C)c2=O)cc1 (centres undefined) is 5.58

According to the records, this compound `CCc1cc(Cn2nc(-c3ccccc3)cc2C(=O)NCC2CC2)on1` displays inhibition of 12

Short answer for `CCc1ccc(NC(=O)COC(=O)/C(=C/c2ccccc2OC)c2ccccc2)cc1` : inhibition was -0.32

// `O=C(c1ccccc1)c1ccccc1N1C(=O)C=CC1=O` : inhibition value = 17.1

Query `COc1cc(C)c(-c2cc(C(=O)O)c(C)o2)cc1C(C)C` yields inhibition of 8.02

// inhibition value for CC(C)Cc1nc(SCC(=O)NCC2CCCO2)c2c(=O)n(C)c(=O)n(C)c2n1 (centres undefined) : 5.52

So for `COc1ccccc1/C=C/C(=O)OCC(=O)N1CCN(S(=O)(=O)c2ccc(C)cc2C)CC1` , the logged inhibition turned out to be 6.05

For record `CCOC(=O)Cc1nnc(NCc2ccccc2)c2ccccc12` the listed inhibition is 6.91

So, `N#CCSc1nnc2sc3ccccc3n12` ? Its inhibition was 5.4

So for `COc1cc(CC(=O)OCC(=O)Nc2ccc3c(c2)OCO3)cc(OC)c1OC` , the logged inhibition turned out to be 12.4

inhibition for `O=S(=O)(O)c1nnc2sc3ccccc3n12` is 7.48

====

Target: Rac GTPase-activating protein 1 (Homo sapiens) (UniProt Q9H0H5)
Sequence (Q9H0H5 whole entry, looked up): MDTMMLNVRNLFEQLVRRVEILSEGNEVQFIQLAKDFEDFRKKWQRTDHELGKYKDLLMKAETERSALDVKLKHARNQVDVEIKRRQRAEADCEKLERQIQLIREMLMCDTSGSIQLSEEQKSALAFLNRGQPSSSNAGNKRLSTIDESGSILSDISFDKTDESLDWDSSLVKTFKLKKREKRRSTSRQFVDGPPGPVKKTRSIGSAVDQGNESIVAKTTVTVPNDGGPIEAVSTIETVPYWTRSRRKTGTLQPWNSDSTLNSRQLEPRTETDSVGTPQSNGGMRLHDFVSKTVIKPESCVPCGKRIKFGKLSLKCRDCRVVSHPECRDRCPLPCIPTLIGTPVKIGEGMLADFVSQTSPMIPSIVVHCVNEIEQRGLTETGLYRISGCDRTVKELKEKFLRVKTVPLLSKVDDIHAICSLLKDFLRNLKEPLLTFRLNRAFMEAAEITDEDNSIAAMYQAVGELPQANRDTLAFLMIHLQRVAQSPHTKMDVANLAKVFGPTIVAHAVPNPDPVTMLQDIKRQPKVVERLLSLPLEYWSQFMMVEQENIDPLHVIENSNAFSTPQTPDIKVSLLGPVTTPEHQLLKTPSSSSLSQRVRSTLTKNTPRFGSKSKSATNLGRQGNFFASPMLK
Assay: blockers of MgcRacGAP-driven Rac1 GTP hydrolysis – biochemical, ADP Hunter fluorescence, primary and confirmatory, confirmation (AID 624330);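 note: fluorescence reports GDP produced by GAP-driven GTP hydrolysis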
Conditions: MgcRacGAP-stimulated Rac1 GTP hydrolysis, at 30 µM, active compounds read high, GST-tagged Rac1 F28L mutant substrate
In all, about 340,000 compounds went through this assay and about 2,100 (0.62%) were called active. Only a sample is shown. Results with a measured potency or affinity are listed apart.
readout.label: inhibition (%)
Reply numerically in %, unit not repeated.

Look over these answered cases.
molecular.string	measurement.target	unit.string	endpoint.result
Cc1nc2ccccn2c1C(=O)N/N=C/c1ccc(F)cc1	Rac GTPase-activating protein 1 (Homo sapiens) (UniProt Q9H0H5)	%	6.23
O=Cc1cn(-c2ccccc2)nc1-c1cccc([N+](=O)[O-])c1	Rac GTPase-activating protein 1 (Homo sapiens) (UniProt Q9H0H5)	%	6.3
O=C(O)c1ccccc1C(=O)Nc1ccccc1	Rac GTPase-activating protein 1 (Homo sapiens) (UniProt Q9H0H5)	%	-1.51
O=C(O)c1ccccc1-c1ccccc1C(=O)Nc1ccccc1	Rac GTPase-activating protein 1 (Homo sapiens) (UniProt Q9H0H5)	%	8.32
COc1ccc(/C=N/NC(=O)c2c(C)nc3ccccn23)cc1[N+](=O)[O-]	Rac GTPase-activating protein 1 (Homo sapiens) (UniProt Q9H0H5)	%	0.27

Short answer for `COc1ccc(OC)c(/C=N\NC(=O)c2c(C)nc3cc(C)ccn23)c1` : inhibition was -1.68

Per the record, `COc1ccc(CNC(=O)CCCn2nc([N+](=O)[O-])cc2C)cc1` has inhibition of 9

The compound `O=C(Nc1ccc(Nc2ccccc2)cc1)C(Cl)Cl` showed inhibition equal to 25.5

Note to self: inhibition recorded for `O=C(COC(=O)/C=C/c1cccc(C(F)(F)F)c1)NC(c1ccccc1)c1ccccc1` was -0.08

// recorded inhibition for `O=C(Nc1ccc(NC(=O)c2ccc3c(c2)OCCO3)cc1)c1ccccc1` : 1.42

Record `O=C(Nc1ncccn1)C1c2ccccc2Oc2ccccc21` . Reported inhibition: 2.37

The measured values listed here are drawn from PubChem BioAssay AID624330.
